experiment: endothelial E-selectin expression blockers – imaging, HUVEC, immunofluorescence, MLSMR starter and 10KST1 sets, primary screen (AID 487); conditions: HUVEC TNFalpha-induced E-selectin immunofluorescence imaging, at 2 µM; stronger effect = higher value;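 also: signal is fraction of cell area covered by stained E-selectin grains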
Note to self: values exactly at -30% are true. So inhibition at or above -30% is true, below is false.

Some entries whose results are on file:
compound: CCOC(=O)c1oc2cc(OCC(N)=O)ccc2c(=O)c1-c1ccc(OC)c(OC)c1
discrete label: false
//
compound: Cc1cc(=O)oc2cc(OCC(=O)OCC(=O)N3CCc4ccccc43)ccc12
discrete label: false
//
compound: N#CCSc1nc(-c2ccccc2)cs1
discrete label: true
//
compound: COC(=O)C(C)C1Sc2ccccc2NC1=O (stereo not drawn)
discrete label: false
//
compound: CCC(C(=O)Nc1ccccc1C(=O)N1CCCC1)N1C(=O)c2ccccc2C1=O (stereo not drawn)
discrete label: false
//
compound: COCc1cc(C)nc(Nc2ccc(C)cc2C)c1C#N
discrete label: true
//
compound: CCn1cc(C(=O)NCCC2=CCCCC2)c(=O)c2cc(S(=O)(=O)N(C)C)ccc21
discrete label: false
//
compound: Cc1ccc(O)c(-c2cc(C(=O)Nc3ccc(S(=O)(=O)N4CC(C)OC(C)C4)cc3)[nH]n2)c1 (stereo not drawn)
discrete label: true
//
compound: CCc1ccc(C(=O)NC2CCCCC2)s1
discrete label: true
//
compound: O=C(O)COc1ccc(Oc2ccccc2)cc1
discrete label: true

Query :: Could you please find out whether COC(=O)Cn1c(CN2CCOCC2)nc2c1c(=O)n(C)c(=O)n2C has inhibition that meets -30% or exceeds it?
Result :: true

Query :: Then what about the compound CCOC(=O)C1=C(Cn2cnc3ccccc32)NC(=O)NC1c1cc(C)ccc1C (stereo not drawn) ?
Result :: true

Query :: Then what about the compound O=C(CSC1=NCCS1)NCc1ccco1 ?
Result :: false

Query :: Then what about the compound Cc1nc(SCC(=O)Nc2ccccc2C(F)(F)F)c2c(=O)n(C)c(=O)n(C)c2n1 ?
Result :: false

Query :: Then what about the compound CCOC(=O)CSc1nn(C)c(=S)s1 ?
Result :: true

Query :: Then what about the compound CCn1nnnc1SCC(=O)Nc1nnc(C(C)C)s1 ?
Result :: true

Query :: Then what about the compound COCCNC(=O)C(c1ccc(C)o1)N(C(=O)c1snc(C(N)=O)c1N)c1ccc(C)cc1 (stereo not drawn) ?
Result :: true

Query :: Then what about the compound O=C(OCc1nnc(-c2ccccc2)o1)c1ccc2ccccc2n1 ?
Result :: false

Query :: Then what about the compound CCOC(=O)N1CCN(C(=O)c2ccc3nc4cc(Cl)ccc4c(=O)n3c2)CC1 ?
Result :: true

Query :: Then what about the compound O=C(O)C1CCCCC1C(=O)Nc1ccccn1 (stereo not drawn) ?
Result :: true

Query :: Then what about the compound Cc1sc2nc(SCC(=O)Nc3c(C)n(C)n(-c4ccccc4)c3=O)n(C)c(=O)c2c1C ?
Result :: true

Query :: Then what about the compound O=C(c1ccccc1)c1ccc(N2CCNCC2)cc1 ?
Result :: true

---

Listing of entries alongside the reported slope.
biological target: Alpha-2C adrenergic receptor (Homo sapiens); test: compounds altering alpha2C-coupled GIRK flux – cell-based, HEK293 alpha2C/GIRK1/2, thallium flux, primary screen (AID 624); conditions: thallium flux BTC fluorescence, at 10 µM, actives lie on both sides;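 also: slope of fluorescence ratio to pre-addition baseline per second over 15 to 24 s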
Just the number.

Solved cases below.
molecule: COc1ccccc1NC(=O)CSc1nnc(Cn2nnc(-c3ccccc3)n2)n1-c1ccccc1
observed property: slope
value measured: 0.00589
--
molecule: CC(C)OC(=O)C1C2C=CC3(CN(Cc4cccs4)C(=O)C13)O2 (configuration not stated)
observed property: slope
value measured: 0.005
--
molecule: CN(C)c1ccc(C2C3=C(CCCC3=O)OC3=C2C(=O)CCC3)cc1
observed property: slope
value measured: 0.00729
--
molecule: CCOCCn1c(CN2CCN(c3cccc(Cl)c3)CC2)nc2c1c(=O)n(C)c(=O)n2C
observed property: slope
value measured: 0.00703
--
molecule: CC(=O)Nc1ccccc1OCC(=O)c1cc(C)n(Cc2cccs2)c1C
observed property: slope
value measured: 0.00662

Query :: What value of measured slope is listed for CC(C)COC(=O)C1[C@H]2C(=O)N(Cc3cccs3)C[C@]23C=C[C@H]1O3 (some centres not stated) ?
Result :: 0.00385

Query :: Then what about the molecule CCN(CC)C(c1ccc(C)cc1)c1nnnn1C1CCCCC1 (configuration not stated) ?
Result :: 0.00367
